test.system: VR1 (Rattus norvegicus)
Construct: open reading frame encoding a protein of 838 amino acids
run.description: Whole-cell two-electrode voltage clamp of VR1-expressing Xenopus oocytes (vanilloid agonists and antagonists)
readout.kind: pEC50
Scale explanation: pEC50 corresponds to minus log10 of a concentration expressed in moles per litre.

Given item `C=C(C)[C@]12C[C@@H](C)[C@@]34O[C@](Cc5ccccc5)(O[C@@H]1[C@@H]3C=C(COC(=O)Cc1ccc(O)c(OC)c1)C[C@]1(O)C(=O)C(C)=C[C@@H]41)O2` , the value recorded as its pEC50 is 7.41

###

test.system: VR1 (Rattus norvegicus, UniProt O35433)
Construct: open reading frame encoding a protein of 838 amino acids
Sequence (O35433 whole entry): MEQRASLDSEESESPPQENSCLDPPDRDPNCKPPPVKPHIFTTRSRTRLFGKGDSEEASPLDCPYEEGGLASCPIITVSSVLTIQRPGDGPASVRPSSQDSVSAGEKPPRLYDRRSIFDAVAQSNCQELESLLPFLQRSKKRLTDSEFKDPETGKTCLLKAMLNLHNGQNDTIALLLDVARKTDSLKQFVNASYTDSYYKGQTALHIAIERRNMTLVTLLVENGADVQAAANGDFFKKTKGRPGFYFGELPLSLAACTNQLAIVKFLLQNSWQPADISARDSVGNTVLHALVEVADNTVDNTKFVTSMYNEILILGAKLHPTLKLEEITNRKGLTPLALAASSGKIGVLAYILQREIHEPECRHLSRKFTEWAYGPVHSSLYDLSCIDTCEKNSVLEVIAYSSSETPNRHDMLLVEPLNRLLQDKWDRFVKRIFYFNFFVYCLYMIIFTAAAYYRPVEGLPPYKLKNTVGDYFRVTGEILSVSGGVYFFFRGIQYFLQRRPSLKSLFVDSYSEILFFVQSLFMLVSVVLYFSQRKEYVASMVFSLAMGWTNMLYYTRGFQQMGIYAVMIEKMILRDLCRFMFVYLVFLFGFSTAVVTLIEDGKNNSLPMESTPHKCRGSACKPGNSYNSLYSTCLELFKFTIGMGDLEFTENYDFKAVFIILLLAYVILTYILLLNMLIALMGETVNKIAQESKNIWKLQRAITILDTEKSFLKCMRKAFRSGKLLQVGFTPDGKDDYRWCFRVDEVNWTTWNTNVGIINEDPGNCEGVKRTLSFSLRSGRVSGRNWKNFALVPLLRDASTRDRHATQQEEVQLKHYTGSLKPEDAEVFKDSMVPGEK
run.description: Whole-cell two-electrode voltage clamp of VR1-expressing Xenopus oocytes (vanilloid agonists and antagonists)
condition.notes: VR1-expressing oocytes, CaCl2 2 mM in place of BaCl2; read-out: IC50, block of capsaicin-evoked responses
Method: Briefly, cRNA transcripts were synthesized from Not1-linearized VR1 cDNA templates using T7 RNA polymerase 17. Defolliculated Xenopus laevis oocytes were injected with 0.5-5 ng VR1 cRNA. […] VR1 was expressed in Xenopus oocytes as described above (Example 3), except that CaCl2 (2 mM) was used in place of BaCl2 when generating the capsazepine inhibition curve. […] Membrane currents were recorded in the whole cell voltage clamp configuration (Vhold=−40 mV).
readout.kind: IC50 (nM)
Express your answer in nM, writing the number without its unit.

# IC50 measured on VR1 (Rattus norvegicus, UniProt O35433) for item Oc1cc2c(cc1O)CN(C(=S)NCCc1ccc(Cl)cc1)CCC2 [capsazepine] = 283
